settings: 279.4 K; 101.33 kPa; Liquid; Vibrating tube method
reported.metric: mass density (kg/m3)
Write the number in kg/m3 without appending the unit.

Use the examples below as a reference point.
C[NH2+]CCO.O=C[O-] [2-hydroxy-N-methylethanaminium formate]
1138.71
CC(C)C(=O)[O-].C[NH2+]CCO [2-hydroxy-N-methylethanaminium isobutyrate]
1055.32
CC(=O)[O-].C[NH2+]CCO [N-methyl-2-hydroxyethylammonium acetate]
1112.08
CCC(=O)[O-].C[NH2+]CCO [2-hydroxy-N-methylethanaminium propionate]
1083.47
CCCCC(=O)[O-].C[NH2+]CCO [2-hydroxy-N-methylethanaminium pentanoate]
1028.85

Note: attention shifts to another entry.
Input line: Query: mass density; subject: CCCC(=O)[O-].C[NH2+]CCO [N-methyl-2-hydroxyethylammonium butanoate]
Output line: 1051.88

* * *

settings: 287.65 K; 101.33 kPa; Liquid; Vibrating tube method
Quick reference for mass density among some compounds
Hi! Could you send only the number? It should be in kg/m3, unit omitted.

Reference set (2 entries):
CCCCC(=O)[O-].C[NH2+]CCO [2-hydroxy-N-methylethanaminium pentanoate]
1023.32
CC(C)C(=O)[O-].C[NH2+]CCO [2-hydroxy-N-methylethanaminium isobutyrate]
1050.01

Input line: Endpoint output: mass density of CC(=O)[O-].C[NH2+]CCO [N-methyl-2-hydroxyethylammonium acetate] . Value?
Output line: 1107.11

* * *

Known mass density of a selection of compounds
conditions: 289.4 K; 101.33 kPa; Liquid; Vibrating tube method
Output spec: scalar in kg/m3, unitless text.

CCCCC(=O)[O-].C[NH2+]CCO [2-hydroxy-N-methylethanaminium pentanoate]
1022.14
CCC(=O)[O-].C[NH2+]CCO [2-hydroxy-N-methylethanaminium propionate]
1076.97
CC(C)C(=O)[O-].C[NH2+]CCO [2-hydroxy-N-methylethanaminium isobutyrate]
1048.87
CCCC(=O)[O-].C[NH2+]CCO [N-methyl-2-hydroxyethylammonium butanoate]
1045.17
CC(=O)[O-].C[NH2+]CCO [N-methyl-2-hydroxyethylammonium acetate]
1106.04

Kindly review the next compound as well.
Input line: What measured mass density goes with C[NH2+]CCO.O=C[O-] [2-hydroxy-N-methylethanaminium formate] ?
Output line: 1133.13

* * *

conditions: 297.65 K; 101.33 kPa; Liquid; Pulse-echo method
± gives the expanded uncertainty stated by the source.
reported.metric: speed of sound

Input line: Need speed of sound of CCCCC(=O)[O-].C[NH2+]CCO [2-hydroxy-N-methylethanaminium pentanoate] , thanks.
Output line: 1550.3 ± 2.1 m/s

Input line: And the next one, CCC(=O)[O-].C[NH2+]CCO [2-hydroxy-N-methylethanaminium propionate] ?
Output line: 1691.5 ± 2.2 m/s

Input line: Next record, please: C[NH2+]CCO.O=C[O-] [2-hydroxy-N-methylethanaminium formate]
Output line: 1816.3 ± 2.2 m/s

Input line: Follow-up entry: CC(C)C(=O)[O-].C[NH2+]CCO [2-hydroxy-N-methylethanaminium isobutyrate]
Output line: 1612.7 ± 2.1 m/s

Input line: What do we get for CCCC(=O)[O-].C[NH2+]CCO [N-methyl-2-hydroxyethylammonium butanoate] ?
Output line: 1616.1 ± 2.1 m/s

* * *

details: 334.41 K; 101.33 kPa; Liquid; Pulse-echo method
Numbers after ± are expanded uncertainties.
reported.metric: speed of sound
The reply should read as a number followed by its unit.

The following molecules have reported results that may help.
CC(C)C(=O)[O-].C[NH2+]CCO [2-hydroxy-N-methylethanaminium isobutyrate]
1508.3 ± 2.1 m/s
C[NH2+]CCO.O=C[O-] [2-hydroxy-N-methylethanaminium formate]
1745.2 ± 2.2 m/s
CCC(=O)[O-].C[NH2+]CCO [2-hydroxy-N-methylethanaminium propionate]
1582 ± 2.1 m/s
CCCCC(=O)[O-].C[NH2+]CCO [2-hydroxy-N-methylethanaminium pentanoate]
1437 ± 2.1 m/s

Note: attention shifts to another entry.
Input line: Using the record for CCCC(=O)[O-].C[NH2+]CCO [N-methyl-2-hydroxyethylammonium butanoate] , report its speed of sound.
Output line: 1500.9 ± 2.1 m/s
